These measurements were taken from paper PMC6784148.

System: intestinal porcine epithelial cell line (IPEC-J2)
METRIC_NAME: Negative effects on IPEC-J2 in the tested concentration range

COMPOUND | TEST_VALUE
O=c1cc(O)c1=O [moniliformin] | None
OCCc1c[nH]c2ccccc12 [tryptophol] | None
CC(C)C[C@@H]1NC(=O)[C@H](C)N(C)C(=O)CNC(=O)/C(=C/c2ccccc2)N(C)C1=O [tentoxin] | None

###

ASSAY_NOTES: in vitro
TEST_PARAMETERS: pig
METRIC_NAME: viability at 50 µM (%)
Give your result in % as a bare value.

[Q] Which viability at 50 µM reading was recorded for the molecule COc1cc(O)c2c(O)c3c(=O)cc(C)oc3cc2c1 [Rubrofusarin] ?
[A] 64
